details: in n-butanol, 298.15 K
Readout: solubility (mole fraction)
Respond with the number and no other words.

Request: Which solubility (mole fraction) reading was recorded for the molecule C=CC1=C(C(=O)O)N2C(=O)[C@@H](NC(=O)/C(=N\OCC(=O)O)c3csc(N)n3)[C@H]2SC1.O.O.O ?
Response: 0.00172

###

details: in acetone, 318.15 K
Readout: solubility (mole fraction)
Respond with the number and no other words.

Request: Which solubility (mole fraction) reading was recorded for the compound C=CC1=C(C(=O)O)N2C(=O)[C@@H](NC(=O)/C(=N\OCC(=O)O)c3csc(N)n3)[C@H]2SC1.O.O.O ?
Response: 0.00701

###

conditions: in acetone, 313.15 K
Readout: solubility (mole fraction)

Request: Which solubility (mole fraction) reading was recorded for the compound C=CC1=C(C(=O)O)N2C(=O)[C@@H](NC(=O)/C(=N\OCC(=O)O)c3csc(N)n3)[C@H]2SC1.O.O.O ?
Response: 0.00581

###

details: in n-butanol, 293.15 K
Readout: solubility (mole fraction)
Respond with the number and no other words.

Request: Which solubility (mole fraction) reading was recorded for the compound C=CC1=C(C(=O)O)N2C(=O)[C@@H](NC(=O)/C(=N\OCC(=O)O)c3csc(N)n3)[C@H]2SC1.O.O.O ?
Response: 0.00151

###

conditions: in acetone, 323.15 K
Readout: solubility (mole fraction)
Respond with the number and no other words.

Request: Which solubility (mole fraction) reading was recorded for the molecule C=CC1=C(C(=O)O)N2C(=O)[C@@H](NC(=O)/C(=N\OCC(=O)O)c3csc(N)n3)[C@H]2SC1.O.O.O ?
Response: 0.00854
